# measured-target: T1, TNFR1 (Homo sapiens, UniProt P19438)
# T1 chain: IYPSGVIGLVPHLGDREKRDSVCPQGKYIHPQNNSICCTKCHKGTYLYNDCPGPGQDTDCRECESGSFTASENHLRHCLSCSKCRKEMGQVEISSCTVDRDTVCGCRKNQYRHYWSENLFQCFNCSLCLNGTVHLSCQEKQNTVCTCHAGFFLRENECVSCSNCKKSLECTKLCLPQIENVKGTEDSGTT
# experiment: yeast display SC50
metric-name: apparent Kd (screen) (nM)

[I] A63D (designed binder) SMEEEVEKAAKEYEKKKKEAIEKHLEKLKAKDKEAAERFLKELEEAAKEYAKDEAKTMSEEEDKRRAKKYKEKVLLSELSEEEQKEIKEAEEKLVRTILKYVEEAAK
[II] F39Y (designed binder) SMEEEVEKAAKEYEKKKKEAIEKHLEKLKAKDKEAAERYLKELEEAAKEYAKDEAKTMSEEEAKRRAKKYKEKVLLSELSEEEQKEIKEAEEKLVRTILKYVEEAAK
Which of these two has the smaller recorded apparent Kd (screen): I or II ? // respond with label for picked entry
II
(II: 1.4 nM, I: 10.4 nM)
